Quick reference for Cell viability (%) Calvarial cell among some compounds
System: Osteoblasts (Calvarial cells)
Test: Cytotoxicity test (MTT)
Details: 1 μM compound, 72 hours, in comparison with vehicle control
API: value field is a number in %; no unit string.

Noted for CCN(CC)c1ccc(Nc2nc(NCC(C)C)ccc2[N+](=O)[O-])cc1F : its Cell viability (%) Calvarial cell reads 107

Noted for CCN(CC)c1ccc(Nc2nc(N3CCN(C)CC3)ccc2[N+](=O)[O-])cc1F : its Cell viability (%) Calvarial cell reads 113

Noted for CCN(CC)c1ccc(Nc2nc(NCc3ccncc3)ccc2[N+](=O)[O-])cc1F : its Cell viability (%) Calvarial cell reads 113

Noted for CC(C)CNc1ccc([N+](=O)[O-])c(Nc2ccc(N3CCOCC3)c(F)c2)n1 : its Cell viability (%) Calvarial cell reads 98
